// data source = patent US3996359A

system: rats subjected to adrenalectomy (granuloma around implanted cotton wads); assay: granulom test (cotton-pellet test) on rats subjected to adrenalectomy: granuloma growth, thymus weight, body weight increase; assay type: in vivo, rat (Sprague-Dawley); conditions: rat, in vivo, 11520 min
ENDPOINT LABEL: Dose required to obtain 50% inhibition of Thymus weight

Exercise: Query the reported Dose required to obtain 50% inhibition of Thymus weight for rats subjected to adrenalectomy (granuloma around implanted cotton wads); item: CCCC1O[C@@H]2C[C@H]3[C@@H]4C[C@H](F)C5=CC(=O)C=C[C@]5(C)[C@@]4(F)[C@@H](O)C[C@]3(C)[C@]2(C(=O)COC(=O)c2cc3ccccc3o2)O1 (single isomer, unassigned) [25 B]
Key: 7 γ/animal
